# test-target: PAR4 (Homo sapiens (Human), UniProt Q96RI0)
# Sequence (Q96RI0 18-385): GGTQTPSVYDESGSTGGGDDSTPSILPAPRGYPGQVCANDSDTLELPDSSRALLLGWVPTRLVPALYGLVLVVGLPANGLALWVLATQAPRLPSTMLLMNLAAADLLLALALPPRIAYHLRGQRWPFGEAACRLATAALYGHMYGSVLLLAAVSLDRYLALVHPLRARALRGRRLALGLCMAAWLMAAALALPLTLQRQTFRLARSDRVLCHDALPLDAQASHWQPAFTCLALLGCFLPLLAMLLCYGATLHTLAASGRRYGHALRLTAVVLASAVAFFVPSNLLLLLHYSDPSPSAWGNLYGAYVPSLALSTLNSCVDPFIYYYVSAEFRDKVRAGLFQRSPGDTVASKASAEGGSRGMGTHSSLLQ
# measurement-notes: FLIPR assay in PAR4-expressing HEK293 cells (PAR4 antagonist activity, calcium mobilization)
# Format: cell-based
# particulars: H-Ala-Phe(4-F)-Pro-Gly-Trp-Leu-Val-Lys-Asn-Gly-NH2-induced calcium mobilization
The following compounds are listed with their measured EC50 values.

compound	EC50 / nM
COc1cc(OCc2csc(-c3ccc(F)nc3)n2)c2cc(-c3cn4nc(C)ccc4n3)oc2c1	0.18
COc1cc(OCc2csc(-c3ccc(F)cc3F)n2)c2cc(-c3cn4nc(OC)sc4n3)oc2c1	1.1
COc1cc(OCc2csc(N3CCN(S(C)(=O)=O)CC3)n2)c2cc(-c3cn4nc(C)ccc4n3)oc2c1	1.9
COc1cc(OCc2csc(-c3ccc(C#N)cc3)n2)c2cc(-c3cn4nc(C)ccc4n3)oc2c1	0.75
COc1cc(OCc2nc(N3CCOCC3)sc2Cl)c2cc(-c3cn4nc(OC)sc4n3)oc2c1	0.97
CNC(=O)c1ccc(-c2nc(COc3cc(OC)cc4oc(-c5cn6nc(OC)sc6n5)cc34)c(C)s2)cc1	0.82
COc1cc(OCc2csc(N3CCCOCC3)n2)c2cc(-c3cn4nc(C)ccc4n3)oc2c1	0.56
COc1cc(OCc2csc(-c3ccc(C#N)cc3)n2)c2cc(-c3cn4nc(OC)sc4n3)oc2c1	2.3
COc1cc(OCc2csc(-c3ccc(C(=O)NC(C)C)cc3)n2)c2cc(-c3cn4nc(OC)sc4n3)oc2c1	0.88
COc1cc(OCc2csc(C3CCN(S(=O)(=O)c4ccccc4)CC3)n2)c2cc(-c3cn4nc(OC)sc4n3)oc2c1	0.43
COc1cc(OCc2csc(N3CCN(C)CC3)n2)c2cc(-c3cn4nc(C)ccc4n3)oc2c1	7.7
COc1cc(OCc2csc(C3CCN(S(C)(=O)=O)CC3)n2)c2cc(-c3cn4nc(OC)sc4n3)oc2c1	0.37
COc1cc(OCc2csc(C3(F)CC(C)OC(C)C3)n2)c2cc(-c3cn4nc([C@H](C)F)sc4n3)oc2c1 (some centres unmarked)	1.1
COc1cc(OCc2csc(-c3ccc(C(=O)N(C)C)cc3)n2)c2cc(-c3cn4nc([C@H](C)F)sc4n3)oc2c1	1.6
COc1cc(OCc2csc(-c3ccc(COC(C)=O)cc3)n2)c2cc(-c3cn4nc(C)ccc4n3)oc2c1	0.81
C[C@H](F)c1nn2cc(-c3cc4c(OCc5csc(-c6ccccc6)n5)cc(F)cc4o3)nc2s1	1.3
COc1cc(OCc2csc(-c3cccc(C#N)c3)n2)c2cc(-c3cn4nc(OC)sc4n3)oc2c1	0.64
CCC(O)(CC)c1nc(COc2cc(OC)cc3oc(-c4cn5nc(OC)sc5n4)cc23)cs1	0.67
CCNC(=O)c1ccc(-c2nc(COc3cc(OC)cc4oc(-c5cn6nc(OC)sc6n5)cc34)cs2)cc1	1.2
COc1cc(OCc2nc(C3CCOCC3)sc2C)c2cc(-c3cn4nc(OC)sc4n3)oc2c1	0.83
COc1cc(OCc2csc(C3(F)CCOCC3)n2)c2cc(-c3cn4nc(C)ccc4n3)oc2c1	0.29
COc1cc(OCc2csc(Nc3cc(C)cc(C)n3)n2)c2cc(-c3cn4nc(C)ccc4n3)oc2c1	207
COc1cc(OCc2csc(C3CCN(C(=O)c4ccccc4)CC3)n2)c2cc(-c3cn4nc(OC)sc4n3)oc2c1	0.78
COc1cc(OCc2csc(-c3ccc(C(=O)NCCO)cc3)n2)c2cc(-c3cn4nc(OC)sc4n3)oc2c1	0.72
COc1cc(OCc2csc(-c3ccnc(F)c3)n2)c2cc(-c3cn4nc(OC)sc4n3)oc2c1	0.34
CCC(F)(CC)c1nc(COc2cc(OC)cc3oc(-c4cn5nc(OC)sc5n4)cc23)cs1	0.47
COc1cc(OCc2csc(NCc3cccnc3)n2)c2cc(-c3cn4nc(C)ccc4n3)oc2c1	5.5
COc1cc(OCc2csc(C3(c4ccc(Cl)cc4)CCOC3)n2)c2cc(-c3cn4nc(OC)sc4n3)oc2c1 (centres unmarked)	0.82
COc1cc(OCc2csc(N3CCN(Cc4cccnc4)CC3)n2)c2cc(-c3cn4nc(C)ccc4n3)oc2c1	5.8
COc1cc(OCc2csc(-c3ccc(COC(C)=O)cc3)n2)c2cc(-c3cn4nc(OC)sc4n3)oc2c1	0.49
COc1cc(OCc2csc(NCCN3CCOCC3)n2)c2cc(-c3cn4nc(C)ccc4n3)oc2c1	909
COc1nn2cc(-c3cc4c(OCc5csc(-c6ccc(C(=O)NCC(F)(F)F)cc6)n5)cc(F)cc4o3)nc2s1	0.72

====

The following compounds are listed with their measured pEC50 values.
# test-target: UniProt Q96RI0
# measurement-notes: FLIPR assay in PAR4-expressing HEK293 cells (PAR4 antagonist activity, calcium mobilization)
# Assay type: cell-based
# particulars: H-Ala-Phe(4-F)-Pro-Gly-Trp-Leu-Val-Lys-Asn-Gly-NH2-induced calcium mobilization
pEC50: −log10 of the molar value. Counter-ions that a name gives are not always drawn.
assay-readout: pEC50

compound	test-target	assay-value
COc1cc(OCc2csc(N3CCN(S(=O)(=O)c4ccc(C#N)cc4)CC3)n2)c2cc(-c3cn4nc(OC)sc4n3)oc2c1 [Example 101]	UniProt Q96RI0	9.44
COc1cc(OCc2csc(C3(c4cccc(Cl)c4)CCOC3)n2)c2cc(-c3cn4nc(OC)sc4n3)oc2c1 (stereo not drawn) [Example 165]	UniProt Q96RI0	8.96
COc1nn2cc(-c3cc4c(OCc5csc(-c6ccccc6)n5)cccc4o3)nc2s1 [Example 191]	UniProt Q96RI0	8.59
COc1cc(OCc2csc(N3CCN(C4CCOCC4)CC3)n2)c2cc(-c3cn4nc(C)ccc4n3)oc2c1 [Example 286]	UniProt Q96RI0	6.96
COc1cc(OCc2csc(C3(c4ccc(C)cc4)CCOCC3)n2)c2cc(-c3cn4nc(OC)sc4n3)oc2c1 [Example 157]	UniProt Q96RI0	8.44
COc1cc(OCc2nc(-c3ccc(C(=O)N(C)C)cc3)sc2C(C)C)c2cc(-c3cn4nc(OC)sc4n3)oc2c1 [Example 42]	UniProt Q96RI0	8.60
COc1cc(OCc2nc(N3CCOCC3)sc2CO)c2cc(-c3cn4nc(OC)sc4n3)oc2c1 [Example 89]	UniProt Q96RI0	9.16
COc1cc(OCc2csc(-c3cccc(O)c3)n2)c2cc(-c3cn4nc(OC)sc4n3)oc2c1 [Example 63]	UniProt Q96RI0	9.20
COc1cc(OCc2nc(N3CCOCC3)sc2C=O)c2cc(-c3cn4nc(OC)sc4n3)oc2c1 [Example 88]	UniProt Q96RI0	8.54
COc1cc(OCc2nc(-c3ccc(C(=O)O)cc3)sc2C)c2cc(-c3cn4nc(OC)sc4n3)oc2c1 [Example 46]	UniProt Q96RI0	8.62
COc1cc(OCc2csc(-c3ccc(C(=O)N4CC(OC)C4)cc3)n2)c2cc(-c3cn4nc(OC)sc4n3)oc2c1 [Example 294]	UniProt Q96RI0	9.40
COc1cc(OCc2csc(Nc3ccc4[nH]ccc4c3)n2)c2cc(-c3cn4nc(C)ccc4n3)oc2c1 [Example 261]	UniProt Q96RI0	7.41
COc1cc(OCc2csc(N3CCC(F)(F)CC3)n2)c2cc(-c3cn4nc(OC)sc4n3)oc2c1 [Example 31]	UniProt Q96RI0	9.23
COc1cc(OCc2csc(-c3cnco3)n2)c2cc(-c3cn4nc(OC)sc4n3)oc2c1 [Example 117]	UniProt Q96RI0	9.37
COc1cc(OCc2csc(C3(N)CCOCC3)n2)c2cc(-c3cn4nc(OC)sc4n3)oc2c1 [Example 172, HCl]	UniProt Q96RI0	9.03
CCc1sc(N2CCOCC2)nc1COc1cc(OC)cc2oc(-c3cn4nc(C)ccc4n3)cc12 [Example 238]	UniProt Q96RI0	9.14
COc1cc(OCc2csc(-c3ccc4c(c3)OCO4)n2)c2cc(-c3cn4nc(OC)sc4n3)oc2c1 [Example 57]	UniProt Q96RI0	9.17
COc1cc(OCc2csc(-c3ccc(C(=O)N(C)CCC#N)cc3)n2)c2cc(-c3cn4nc(OC)sc4n3)oc2c1 [Example 311]	UniProt Q96RI0	9.19
COc1cc(OCc2csc(-c3ccc(C(F)(F)F)cc3)n2)c2cc(-c3cn4nc(C)ccc4n3)oc2c1 [Example 208]	UniProt Q96RI0	9.09
COc1cc(OCc2csc(-c3ccc(OC(F)(F)F)cc3)n2)c2cc(-c3cn4nc(OC)sc4n3)oc2c1 [Example 29]	UniProt Q96RI0	8.85
COc1cc(OCc2csc(-c3ccncc3)n2)c2cc(-c3cn4nc(C)ccc4n3)oc2c1 [Example 232]	UniProt Q96RI0	9.00
COc1cc(OCc2nc(N3CC4CCC(C3)O4)sc2C)c2cc(-c3cn4nc(OC)sc4n3)oc2c1 [Example 93]	UniProt Q96RI0	9.35
COc1cc(OCc2csc(C3CCC(F)(F)CC3)n2)c2cc(-c3cn4nc(C)ccc4n3)oc2c1 [Example 239]	UniProt Q96RI0	9.24
COc1cc(OCc2csc(C3(c4ccccc4)CCOCC3)n2)c2cc(-c3cn4nc(OC)sc4n3)oc2c1 [Example 162]	UniProt Q96RI0	9.17
COc1cc(OCc2csc(-c3ccc(C)nc3)n2)c2cc(-c3cn4nc(C)ccc4n3)oc2c1 [Example 231]	UniProt Q96RI0	8.74
COc1cc(OCc2csc(Nc3ccc(Br)cc3C)n2)c2cc(-c3cn4nc(OC)sc4n3)oc2c1 [Example 108]	UniProt Q96RI0	8.92
COCCN(CCOC)c1nc(COc2cc(OC)cc3oc(-c4cn5nc(C)ccc5n4)cc23)cs1 [Example 246]	UniProt Q96RI0	8.85
COc1cc(OCc2csc(C3(O)CCN(C(=O)c4ccccc4)CC3)n2)c2cc(-c3cn4nc(OC)sc4n3)oc2c1 [Example 130]	UniProt Q96RI0	9.40
COC(=O)c1ccc(-c2nc(COc3cc(OC)cc4oc(-c5cn6nc(OC)sc6n5)cc34)cs2)cc1 [Example 37]	UniProt Q96RI0	9.35
COc1cc(OCc2nc(N3CCOCC3)sc2C(F)(F)F)c2cc(-c3cn4nc(C)ccc4n3)oc2c1 [Example 220]	UniProt Q96RI0	9.14
